test: Displacement of [3H]AMPA from AMPA receptor in rat cortical synaptosomes; assay type: subcellular, Brain
Recorded Metric: IC50 (nM)
Enter your answer as a number in nM; do not include the unit.

Molecule | IC50 [nM]
Cc1onc(O)c1C[C@H](N)C(=O)O [(S)-AMPA] | 39
CC(C)(C)c1onc(O)c1C[C@H](N)C(=O)O | 1800
CC1CCC=C(C[C@H](N)C(=O)O)c2c(O)noc21 (mixture of isomers) | 9700

Look up IC50 for this molecule: `N[C@@H](CC1=CCCCc2onc(O)c21)C(=O)O`
280

----------
target: Glutamate receptor 3 (Rattus norvegicus); test: Agonist activity at rat recombinant GluR3 flip isomer expressed in HEK293 cells assessed as increase in intracellular calcium level by Fluo-4/AM assay relative to glutamic acid; type: functional, cell-based
Recorded Metric: Activity (%)
Give just the number in %; leave the unit off.

Molecule | Recorded Metric | Observed Measurement
N[C@@H](CC1=CCCCc2onc(O)c21)C(=O)O | Activity | 54
CC(C)(C)c1onc(O)c1C[C@H](N)C(=O)O | Activity | 100
C=C(C)[C@H]1CN[C@H](C(=O)O)[C@H]1CC(=O)O [KAINIC ACID] | Activity | 45

Consider now this further molecule.
Look up Activity for this molecule: CC1CCC=C(C[C@H](N)C(=O)O)c2c(O)noc21 (mixture of isomers)
46
